system: Escherichia coli; assay: Antibacterial activity against Escherichia coli at 50 ug/ml after 24 hrs by agar disk diffusion assay; type: functional; conditions: read-out: DIZ
Catalogue of zone of inhibition at 50 µg/mL values
OBSERVATION_TYPE: zone of inhibition at 50 µg/mL

item_smiles=CCOC(=O)c1c(N)nc2c(c1-c1ccc(N(C)C)cc1)CCc1c-2[nH]c2ccc(C)cc12 observation_type="zone of inhibition at 50 µg/mL" readout_value="19 mm"
item_smiles=Cc1ccc2[nH]c3c(c2c1)CCc1c-3nc(N)c(C#N)c1-c1ccc(N(C)C)cc1 observation_type="zone of inhibition at 50 µg/mL" readout_value="17 mm"
item_smiles=CCOC(=O)c1c(N)nc2c(c1-c1cccnc1)CCc1c-2[nH]c2ccc(C)cc12 observation_type="zone of inhibition at 50 µg/mL" readout_value="20 mm"
item_smiles=Cc1ccc2[nH]c3c(c2c1)CCc1c-3nc(N)c(C#N)c1-c1cccnc1 observation_type="zone of inhibition at 50 µg/mL" readout_value="19 mm"

* * *

system: Staphylococcus aureus; assay: Antibacterial activity against Staphylococcus aureus after 24 hrs by agar disk diffusion assay; format: functional
OBSERVATION_TYPE: MIC (µg/mL)

item_smiles=Cc1ccc2[nH]c3c(c2c1)CCc1c-3nc(N)c(C#N)c1-c1cccnc1 system_tested="Staphylococcus aureus" readout_value=50
item_smiles=CCOC(=O)c1c(N)nc2c(c1-c1ccc(N(C)C)cc1)CCc1c-2[nH]c2ccc(C)cc12 system_tested="Staphylococcus aureus" readout_value=50
item_smiles=Cc1ccc2[nH]c3c(c2c1)CCc1c-3nc(N)c(C#N)c1-c1ccccc1 system_tested="Staphylococcus aureus" readout_value=100
item_smiles=Cc1ccc2[nH]c3c(c2c1)CCc1c-3nc(N)c(C#N)c1-c1cccs1 system_tested="Staphylococcus aureus" readout_value=25
item_smiles=CCOC(=O)c1c(N)nc2c(c1-c1ccccc1)CCc1c-2[nH]c2ccc(C)cc12 system_tested="Staphylococcus aureus" readout_value=100
item_smiles=Cc1ccc2[nH]c3c(c2c1)CCc1c-3nc(N)c(C#N)c1-c1cc2ccccc2nc1Cl system_tested="Staphylococcus aureus" readout_value=25
item_smiles=CCOC(=O)c1c(N)nc2c(c1-c1cc3ccccc3nc1Cl)CCc1c-2[nH]c2ccc(C)cc12 system_tested="Staphylococcus aureus" readout_value=25
item_smiles=Cc1ccc2[nH]c3c(c2c1)CCc1c-3nc(N)c(C#N)c1-c1ccc(N(C)C)cc1 system_tested="Staphylococcus aureus" readout_value=50
item_smiles=CCOC(=O)c1c(N)nc2c(c1-c1cccs1)CCc1c-2[nH]c2ccc(C)cc12 system_tested="Staphylococcus aureus" readout_value=25

* * *

Catalogue of zone of inhibition at 25 µg/mL values
system: Staphylococcus aureus; test: Antibacterial activity against Staphylococcus aureus at 25 ug/ml after 24 hrs by agar disk diffusion assay; assay type: functional; details: read-out: DIZ
OBSERVATION_TYPE: zone of inhibition at 25 µg/mL (mm)

item_smiles=CCOC(=O)c1c(N)nc2c(c1-c1cc3ccccc3nc1Cl)CCc1c-2[nH]c2ccc(C)cc12 system_tested="Staphylococcus aureus" readout_value=25
item_smiles=Cc1ccc2[nH]c3c(c2c1)CCc1c-3nc(N)c(C#N)c1-c1cc2ccccc2nc1Cl system_tested="Staphylococcus aureus" readout_value=25
item_smiles=CCOC(=O)c1c(N)nc2c(c1-c1cccs1)CCc1c-2[nH]c2ccc(C)cc12 system_tested="Staphylococcus aureus" readout_value=27
item_smiles=CCOC(=O)c1c(N)nc2c(c1-c1ccc(Br)cc1)CCc1c-2[nH]c2ccc(C)cc12 system_tested="Staphylococcus aureus" readout_value=23
item_smiles=Cc1ccc2[nH]c3c(c2c1)CCc1c-3nc(N)c(C#N)c1-c1cccs1 system_tested="Staphylococcus aureus" readout_value=26
item_smiles=Cc1ccc2[nH]c3c(c2c1)CCc1c-3nc(N)c(C#N)c1-c1ccc(Br)cc1 system_tested="Staphylococcus aureus" readout_value=24

* * *

tested on: Klebsiella pneumoniae; test: Antibacterial activity against Klebsiella pneumoniae at 50 ug/ml after 24 hrs by agar disk diffusion assay; type: functional; conditions: read-out: DIZ
OBSERVATION_TYPE: zone of inhibition at 50 µg/mL (mm)

item_smiles=CCOC(=O)c1c(N)nc2c(c1-c1cccnc1)CCc1c-2[nH]c2ccc(C)cc12 units_of_measure=mm readout_value=21
item_smiles=Cc1ccc2[nH]c3c(c2c1)CCc1c-3nc(N)c(C#N)c1-c1cccnc1 units_of_measure=mm readout_value=18
item_smiles=CCOC(=O)c1c(N)nc2c(c1-c1ccc(N(C)C)cc1)CCc1c-2[nH]c2ccc(C)cc12 units_of_measure=mm readout_value=22
item_smiles=Cc1ccc2[nH]c3c(c2c1)CCc1c-3nc(N)c(C#N)c1-c1ccc(N(C)C)cc1 units_of_measure=mm readout_value=18

* * *

system: Escherichia coli; assay: Antibacterial activity against Escherichia coli at 25 ug/ml after 24 hrs by agar disk diffusion assay; format: functional; conditions: read-out: DIZ
OBSERVATION_TYPE: zone of inhibition at 25 µg/mL (mm)

item_smiles=CCOC(=O)c1c(N)nc2c(c1-c1cc3ccccc3nc1Cl)CCc1c-2[nH]c2ccc(C)cc12 system_tested="Escherichia coli" observation_type="zone of inhibition at 25 µg/mL" readout_value=23
item_smiles=Cc1ccc2[nH]c3c(c2c1)CCc1c-3nc(N)c(C#N)c1-c1cccs1 system_tested="Escherichia coli" observation_type="zone of inhibition at 25 µg/mL" readout_value=27
item_smiles=CCOC(=O)c1c(N)nc2c(c1-c1cccs1)CCc1c-2[nH]c2ccc(C)cc12 system_tested="Escherichia coli" observation_type="zone of inhibition at 25 µg/mL" readout_value=26
item_smiles=Cc1ccc2[nH]c3c(c2c1)CCc1c-3nc(N)c(C#N)c1-c1cc2ccccc2nc1Cl system_tested="Escherichia coli" observation_type="zone of inhibition at 25 µg/mL" readout_value=23
item_smiles=CCOC(=O)c1c(N)nc2c(c1-c1ccc(Br)cc1)CCc1c-2[nH]c2ccc(C)cc12 system_tested="Escherichia coli" observation_type="zone of inhibition at 25 µg/mL" readout_value=21
item_smiles=Cc1ccc2[nH]c3c(c2c1)CCc1c-3nc(N)c(C#N)c1-c1ccc(Br)cc1 system_tested="Escherichia coli" observation_type="zone of inhibition at 25 µg/mL" readout_value=22

* * *

test system: Klebsiella pneumoniae; test: Antibacterial activity against Klebsiella pneumoniae after 24 hrs by agar disk diffusion assay; assay type: functional
OBSERVATION_TYPE: MIC (µg/mL)

item_smiles=CCOC(=O)c1c(N)nc2c(c1-c1ccc(N(C)C)cc1)CCc1c-2[nH]c2ccc(C)cc12 observation_type=MIC readout_value=50
item_smiles=Cc1ccc2[nH]c3c(c2c1)CCc1c-3nc(N)c(C#N)c1-c1cc2ccccc2nc1Cl observation_type=MIC readout_value=25
item_smiles=CCOC(=O)c1c(N)nc2c(c1-c1cc3ccccc3nc1Cl)CCc1c-2[nH]c2ccc(C)cc12 observation_type=MIC readout_value=25
item_smiles=Cc1ccc2[nH]c3c(c2c1)CCc1c-3nc(N)c(C#N)c1-c1cccnc1 observation_type=MIC readout_value=50
item_smiles=Cc1ccc2[nH]c3c(c2c1)CCc1c-3nc(N)c(C#N)c1-c1ccc(Br)cc1 observation_type=MIC readout_value=25
item_smiles=CCOC(=O)c1c(N)nc2c(c1-c1ccc(Br)cc1)CCc1c-2[nH]c2ccc(C)cc12 observation_type=MIC readout_value=25
item_smiles=Cc1ccc2[nH]c3c(c2c1)CCc1c-3nc(N)c(C#N)c1-c1cccs1 observation_type=MIC readout_value=25
item_smiles=CCOC(=O)c1c(N)nc2c(c1-c1ccccc1)CCc1c-2[nH]c2ccc(C)cc12 observation_type=MIC readout_value=100
item_smiles=CCOC(=O)c1c(N)nc2c(c1-c1cccs1)CCc1c-2[nH]c2ccc(C)cc12 observation_type=MIC readout_value=25

* * *

test system: Aspergillus niger; experiment: Antifungal activity against Aspergillus niger at 25 ug/ml after 48 hrs by agar disk diffusion assay; type: functional; settings: read-out: DIZ
OBSERVATION_TYPE: zone of inhibition at 25 µg/mL (mm)

item_smiles=CCOC(=O)c1c(N)nc2c(c1-c1cc3ccccc3nc1Cl)CCc1c-2[nH]c2ccc(C)cc12 readout_value=7
item_smiles=Cc1ccc2[nH]c3c(c2c1)CCc1c-3nc(N)c(C#N)c1-c1ccc(Br)cc1 readout_value=6
item_smiles=Cc1ccc2[nH]c3c(c2c1)CCc1c-3nc(N)c(C#N)c1-c1cccs1 readout_value=15
item_smiles=Cc1ccc2[nH]c3c(c2c1)CCc1c-3nc(N)c(C#N)c1-c1cc2ccccc2nc1Cl readout_value=6
item_smiles=CCOC(=O)c1c(N)nc2c(c1-c1cccs1)CCc1c-2[nH]c2ccc(C)cc12 readout_value=17
item_smiles=CCOC(=O)c1c(N)nc2c(c1-c1ccc(Br)cc1)CCc1c-2[nH]c2ccc(C)cc12 readout_value=5

* * *

tested on: Klebsiella pneumoniae; assay: Antibacterial activity against Klebsiella pneumoniae after 24 hrs by agar disk diffusion assay; assay type: functional
Catalogue of MIC values
OBSERVATION_TYPE: MIC (µg/mL)

item_smiles=O=C(O)c1cn(C2CC2)c2cc(N3CCNCC3)c(F)cc2c1=O system_tested="Klebsiella pneumoniae" observation_type=MIC readout_value=12.5
item_smiles=Cc1ccc2[nH]c3c(c2c1)CCc1c-3nc(N)c(C#N)c1-c1ccccc1 system_tested="Klebsiella pneumoniae" observation_type=MIC readout_value=100
item_smiles=Cc1ccc2[nH]c3c(c2c1)CCc1c-3nc(N)c(C#N)c1-c1ccc(N(C)C)cc1 system_tested="Klebsiella pneumoniae" observation_type=MIC readout_value=50
item_smiles=CCOC(=O)c1c(N)nc2c(c1-c1cccnc1)CCc1c-2[nH]c2ccc(C)cc12 system_tested="Klebsiella pneumoniae" observation_type=MIC readout_value=50
